experimental system: T1, human PD-1 extracellular domain fused with mouse Fc (PD-1-mFc) (human, UniProt Q15116 25-170)
T1 construct: extracellular domain; not used because of the label; also called hPD-1-mFc; human PD-1-mouse Fc fusion protein
T1 sequence (Q15116 25-170): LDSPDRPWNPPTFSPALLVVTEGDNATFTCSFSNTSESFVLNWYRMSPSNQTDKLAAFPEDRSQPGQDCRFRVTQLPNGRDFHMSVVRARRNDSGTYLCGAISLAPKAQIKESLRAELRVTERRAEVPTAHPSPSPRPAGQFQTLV
assay info: blockage ELISA, coated PD-1-mFc, competitor PDL-1-mFc-biotin
property name: IC50 (µg/mL)
Answer with a number only, understood to be in µg/mL.

See these solved cases before continuing.
binder	IC50 (µg/mL)
chimeric 7D3-hIgG4 (antibody, V domains shown, Mouse variable regions with human IgG4 constant region) VH: EVKLVESGGGLVKPGGSLKLSCGASGFTFSSYGMSWVRQTPEKRLEWVATISGGGRDIYYPDSVKGRLTISRDNAKNNLYLQMSSLRSEDTALYYCVRQYYDDWFAYWGQGTLVTVSA VL: DIVLTQSPATLSVTPGDSVSLSCRASQSISNDLHWYQQKSHESPRLLIKYVSQSISGIPSRFSGSGSGTDFTLSINSVETEDFGMYFCQQSDSWPLTFGAGTKLELKR	0.948
chimeric 10D1-hIgG4 (antibody, V domains shown, Mouse variable regions with human IgG4 constant region) VH: EVKLVESGGGLVKPGGSLKLSCAASGFTFSSYGMSWLRQTPEKRLEWVATMSGGGRDIYYPDSMKGRFTISRDNAKNNLYLQMSSLRSEDTALYYCARQYYDDWFAYWGQGTLVTVSA VL: DIVLTQTPATLSVTPGDSVSLSCRASQSISNNLHWYQQKSHESPRLLIKYASQSISGIPSRFSGSGSGTDFTLNINSVETEDFGMYFCQQSNSWPLTFGAGTKLELKR	1.03
chimeric 6E1-hIgG4 (antibody, V domains shown, Mouse variable regions with human IgG4 constant region) VH: EVKLVESGGGLVKPGGSLKLSCAASGFTFSSYGMSWVRQTPEKRLEWVATISGGGRDTYYLDSVKGRFTISRDNAKNNLYLQMSSLRSEDTALYYCVRQYYDDWFAYWGQGTLVSNSA VL: DIVLTQTPATLSVTPGDSVSLSCRASQSLSNNLHWYQQKSHESPRLLIKYASQSISGIPSRFSGSGSGTDFTLSINSVETEDFGMYFCQQSNSWPLTFGAGTKLEMKR	0.869
chimeric 4C10-hIgG4 (antibody, V domains shown, Mouse variable regions with human IgG4 constant region) VH: QVQLKQSGPGLVQPSQNLSVTCTVSGFSLTTYGVHWVRQSPGKGLEWLGVIWSGGSTDYNAAFISRLTISKDNARSQVFFKMNSLQVNDTAMYYCAREKSVYGNYVGAMDYWGQGTSVTVSS VL: SIVMTQTPKFLLVSAGDRVTITCKASQSVSDDVAWYQQKPGQSPKLLIYYAFNRYTGVPDRFTGSGYGTDFTFTISTVQSEDLAVYFCQQDYRSPWTFGGGTKLEIKR	0.978

Turning now to a further binder:
Ask | For the binder shown here, chimeric 13F1-hIgG4 (antibody, V domains shown, Full chimeric chains; also called 13F1-chimeric) VH: DVQLQESGPGLVKPSQSLSLTCTVTGYSITSDYAWNWIRQFPGNQLEWMAYISYSGYTSYNPSLKSRISITRDTSKNQFFLQLNSVTTEDTATYYCARSLDYDYGTMDYWGQGTSVTVSS VL: QIVLSQSPAILSASPGEKVTMTCRANSSVSSMHWYQQKPGSSPEPWIYAISNLAFGVPTRFSGSGSGTSYSLTISRVEAEDAATYFCQQWSSRPPTFGGGTKLEIKR , give the reported IC50.
Reply | 0.856
